Reference source for all entries: patent US20210087281A1

target: native human MET on living cells (human, UniProt P08581 25-1390); experiment: cell-based or functional assay
Sequence (P08581 25-1390): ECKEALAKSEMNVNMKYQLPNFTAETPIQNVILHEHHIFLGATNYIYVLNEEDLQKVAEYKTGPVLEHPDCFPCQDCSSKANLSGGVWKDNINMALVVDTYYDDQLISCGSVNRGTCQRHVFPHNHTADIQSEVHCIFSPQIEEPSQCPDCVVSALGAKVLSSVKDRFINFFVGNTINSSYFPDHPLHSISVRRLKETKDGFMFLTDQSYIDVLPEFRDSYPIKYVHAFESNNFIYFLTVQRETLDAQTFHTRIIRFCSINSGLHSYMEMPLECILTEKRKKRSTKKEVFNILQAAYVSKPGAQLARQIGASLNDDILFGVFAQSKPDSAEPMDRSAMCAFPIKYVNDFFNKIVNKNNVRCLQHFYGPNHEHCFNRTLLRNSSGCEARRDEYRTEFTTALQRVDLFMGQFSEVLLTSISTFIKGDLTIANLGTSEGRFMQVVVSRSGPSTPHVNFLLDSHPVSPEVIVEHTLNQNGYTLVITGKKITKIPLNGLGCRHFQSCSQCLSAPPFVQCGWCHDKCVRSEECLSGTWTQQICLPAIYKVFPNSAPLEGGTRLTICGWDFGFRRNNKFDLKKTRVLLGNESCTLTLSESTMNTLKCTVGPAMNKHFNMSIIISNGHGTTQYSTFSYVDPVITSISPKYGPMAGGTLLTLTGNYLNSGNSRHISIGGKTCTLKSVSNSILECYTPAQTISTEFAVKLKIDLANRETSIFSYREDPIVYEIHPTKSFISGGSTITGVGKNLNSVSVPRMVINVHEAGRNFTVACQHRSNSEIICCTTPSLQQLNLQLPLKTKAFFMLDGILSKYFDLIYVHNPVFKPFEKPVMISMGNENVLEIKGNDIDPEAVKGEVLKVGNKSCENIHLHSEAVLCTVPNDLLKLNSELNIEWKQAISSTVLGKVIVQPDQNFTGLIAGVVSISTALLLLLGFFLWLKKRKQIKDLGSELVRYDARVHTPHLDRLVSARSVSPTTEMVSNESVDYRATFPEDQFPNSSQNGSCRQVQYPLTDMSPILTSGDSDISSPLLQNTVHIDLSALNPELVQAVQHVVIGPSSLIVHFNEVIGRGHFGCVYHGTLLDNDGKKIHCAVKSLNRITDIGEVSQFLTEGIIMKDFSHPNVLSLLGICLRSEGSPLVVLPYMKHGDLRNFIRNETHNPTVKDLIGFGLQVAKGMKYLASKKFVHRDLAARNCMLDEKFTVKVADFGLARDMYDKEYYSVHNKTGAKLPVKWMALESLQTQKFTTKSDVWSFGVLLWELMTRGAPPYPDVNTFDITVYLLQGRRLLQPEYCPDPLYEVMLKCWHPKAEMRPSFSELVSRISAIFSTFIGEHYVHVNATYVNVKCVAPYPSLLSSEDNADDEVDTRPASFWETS
property-measured: scatter score 0-4, HPAF-II, 0.012 nM (score)
Use score as the unit, but write only the number.

Solved cases below.
71G12 chimeric llama-human IgG1 mAb (antibody, V domains shown, llama VH on human IgG1 CH1-CH2-CH3, llama VL on human kappa CL) VH: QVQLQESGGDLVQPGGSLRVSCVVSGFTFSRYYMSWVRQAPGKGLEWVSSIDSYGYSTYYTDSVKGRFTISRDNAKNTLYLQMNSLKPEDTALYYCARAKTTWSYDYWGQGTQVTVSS VL: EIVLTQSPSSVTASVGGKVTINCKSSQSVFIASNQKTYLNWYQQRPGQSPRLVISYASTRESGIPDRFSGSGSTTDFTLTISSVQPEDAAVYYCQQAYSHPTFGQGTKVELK ... 0
71D4 chimeric llama-human IgG1 mAb (antibody, V domains shown, llama VH on human IgG1 CH1-CH2-CH3, llama VL on human lambda CL) VH: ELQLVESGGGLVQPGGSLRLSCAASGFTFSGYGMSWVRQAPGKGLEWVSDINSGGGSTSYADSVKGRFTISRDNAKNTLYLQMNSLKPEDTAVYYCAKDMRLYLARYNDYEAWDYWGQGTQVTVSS VL: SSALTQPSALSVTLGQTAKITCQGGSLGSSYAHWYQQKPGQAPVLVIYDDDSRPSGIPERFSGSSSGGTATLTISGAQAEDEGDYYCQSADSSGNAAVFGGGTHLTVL ... 0
71A3 chimeric llama-human IgG1 mAb (antibody, V domains shown, llama VH on human IgG1 CH1-CH2-CH3, llama VL on human lambda CL) VH: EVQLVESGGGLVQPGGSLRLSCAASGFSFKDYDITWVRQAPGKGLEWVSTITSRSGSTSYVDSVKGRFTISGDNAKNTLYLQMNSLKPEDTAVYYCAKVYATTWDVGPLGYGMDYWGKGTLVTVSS VL: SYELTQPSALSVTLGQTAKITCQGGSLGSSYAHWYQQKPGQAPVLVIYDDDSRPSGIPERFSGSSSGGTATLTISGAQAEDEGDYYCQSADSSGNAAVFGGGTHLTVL ... 2
71G3 chimeric llama-human IgG1 mAb (antibody, V domains shown, llama VH on human IgG1 CH1-CH2-CH3, llama VL on human lambda CL) VH: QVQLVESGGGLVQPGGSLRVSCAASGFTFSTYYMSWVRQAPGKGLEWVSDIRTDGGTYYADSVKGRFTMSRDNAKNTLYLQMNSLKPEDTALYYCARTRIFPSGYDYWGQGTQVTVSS VL: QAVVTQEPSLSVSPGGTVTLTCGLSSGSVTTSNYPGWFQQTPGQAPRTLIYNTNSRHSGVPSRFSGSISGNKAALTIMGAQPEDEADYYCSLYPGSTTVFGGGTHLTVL ... 1
71D6 chimeric llama-human IgG1 mAb (antibody, V domains shown, llama VH on human IgG1 CH1-CH2-CH3, llama VL on human lambda CL) VH: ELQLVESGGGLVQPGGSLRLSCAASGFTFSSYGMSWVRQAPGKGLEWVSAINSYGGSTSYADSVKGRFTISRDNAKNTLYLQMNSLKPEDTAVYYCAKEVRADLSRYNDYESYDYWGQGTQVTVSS VL: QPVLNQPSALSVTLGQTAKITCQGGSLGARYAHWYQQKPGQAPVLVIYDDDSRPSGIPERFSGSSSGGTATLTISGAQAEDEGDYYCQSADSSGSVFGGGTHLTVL ... 2

Please turn your attention to the following entry.
Challenge: Retrieve scatter score 0-4, HPAF-II, 0.012 nM measured for 76G7 chimeric llama-human IgG1 mAb (antibody, V domains shown, llama VH on human IgG1 CH1-CH2-CH3, llama VL on human lambda CL) VH: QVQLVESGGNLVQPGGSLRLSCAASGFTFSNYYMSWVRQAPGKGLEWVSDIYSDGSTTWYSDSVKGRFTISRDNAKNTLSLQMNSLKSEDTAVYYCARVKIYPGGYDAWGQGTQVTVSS VL: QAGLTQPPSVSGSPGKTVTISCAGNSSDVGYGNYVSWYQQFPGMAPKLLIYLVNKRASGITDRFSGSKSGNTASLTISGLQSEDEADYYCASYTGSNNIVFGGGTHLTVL and print it.
Response given: 0
